Reported shrunken log2 fold change values for a set of sequences
Test system: Escherichia coli TOP10;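 further: peptides expressed intracellularly from a pBAD plasmid library in pooled LB shake-flask culture, induced with 0.3% L-arabinose, DNA abundance read by NGS, three biological replicates, DESeq2 with apeglm shrinkage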
protocol summary: shrunken log2 fold change of peptide-encoding DNA abundance (4.5 h post-induction vs induction); higher = less antimicrobial activity (less host growth inhibition)
experimental conditions: time post-induction: 4.5 h; library: site-saturation at positions 5, 18, 19, 20
readout name: shrunken log2 fold change

seq_text=RRIRRRPPRLPRPRPRPDVKPRP readout_name="shrunken log2 fold change" endpoint_result=3.47
seq_text=RRIRARPPRLPRPRPRPHKRPRP readout_name="shrunken log2 fold change" endpoint_result=0.157
seq_text=RRIRDRPPRLPRPRPRPVYCPRP readout_name="shrunken log2 fold change" endpoint_result=-0.115
seq_text=RRIRTRPPRLPRPRPRPCPHPRP readout_name="shrunken log2 fold change" endpoint_result=-0.0429
seq_text=RRIRVRPPRLPRPRPRPQMWPRP readout_name="shrunken log2 fold change" endpoint_result=0.0478
seq_text=RRIRVRPPRLPRPRPRPMYSPRP readout_name="shrunken log2 fold change" endpoint_result=-0.242
seq_text=RRIRDRPPRLPRPRPRPMRRPRP readout_name="shrunken log2 fold change" endpoint_result=0.363
seq_text=RRIRKRPPRLPRPRPRPDKFPRP readout_name="shrunken log2 fold change" endpoint_result=0.126
seq_text=RRIRWRPPRLPRPRPRPCEEPRP readout_name="shrunken log2 fold change" endpoint_result=0.0489
seq_text=RRIRDRPPRLPRPRPRPVKIPRP readout_name="shrunken log2 fold change" endpoint_result=-0.101
seq_text=RRIRQRPPRLPRPRPRPFVWPRP readout_name="shrunken log2 fold change" endpoint_result=0.049
seq_text=RRIRNRPPRLPRPRPRPRPSPRP readout_name="shrunken log2 fold change" endpoint_result=0.443
seq_text=RRIRYRPPRLPRPRPRPDEQPRP readout_name="shrunken log2 fold change" endpoint_result=-0.00172
seq_text=RRIRPRPPRLPRPRPRPRFHPRP readout_name="shrunken log2 fold change" endpoint_result=-0.108
seq_text=RRIRFRPPRLPRPRPRPGPEPRP readout_name="shrunken log2 fold change" endpoint_result=0.103
seq_text=RRIRKRPPRLPRPRPRPMHEPRP readout_name="shrunken log2 fold change" endpoint_result=0.191
seq_text=RRIRCRPPRLPRPRPRPMNRPRP readout_name="shrunken log2 fold change" endpoint_result=-0.35
seq_text=RRIRARPPRLPRPRPRPEHIPRP readout_name="shrunken log2 fold change" endpoint_result=-0.185
seq_text=RRIRERPPRLPRPRPRPPEMPRP readout_name="shrunken log2 fold change" endpoint_result=0.0477
seq_text=RRIRTRPPRLPRPRPRPRPRPRP readout_name="shrunken log2 fold change" endpoint_result=0.81
seq_text=RRIRTRPPRLPRPRPRPDVMPRP readout_name="shrunken log2 fold change" endpoint_result=-0.00136
seq_text=RRIRIRPPRLPRPRPRPCQLPRP readout_name="shrunken log2 fold change" endpoint_result=-0.812
seq_text=RRIRGRPPRLPRPRPRPNLVPRP readout_name="shrunken log2 fold change" endpoint_result=0.0862
seq_text=RRIRIRPPRLPRPRPRPQDYPRP readout_name="shrunken log2 fold change" endpoint_result=-0.162
seq_text=RRIRMRPPRLPRPRPRPDDPPRP readout_name="shrunken log2 fold change" endpoint_result=1.6
seq_text=RRIRLRPPRLPRPRPRPINKPRP readout_name="shrunken log2 fold change" endpoint_result=-0.617
seq_text=RRIRIRPPRLPRPRPRPVEQPRP readout_name="shrunken log2 fold change" endpoint_result=0.107
seq_text=RRIRMRPPRLPRPRPRPCEQPRP readout_name="shrunken log2 fold change" endpoint_result=0.195
seq_text=RRIRKRPPRLPRPRPRPPEMPRP readout_name="shrunken log2 fold change" endpoint_result=0.262
seq_text=RRIRERPPRLPRPRPRPHMNPRP readout_name="shrunken log2 fold change" endpoint_result=-0.337
seq_text=RRIRRRPPRLPRPRPRPWDWPRP readout_name="shrunken log2 fold change" endpoint_result=0.428
seq_text=RRIRSRPPRLPRPRPRPNFHPRP readout_name="shrunken log2 fold change" endpoint_result=-0.171
